- Test system: OVCAR-5
- ASSAY PROTOCOL: NCI tumour cell line growth inhibition, 48 h
Active and inactive are the calls of the source. No stated cut-off is given here; in the data, active = GI50 up to about 1.1 µM and inactive = higher.
Measured GI50, listed per entry.

Observe how each entry below is paired with its result.
>>> result("CC[C@@]1(C[C@H]2C[C@@]3(C(=O)OC)c4[nH]c5ccccc5c4CCN3C2=O)COC2(CCCCC2)O1")
"55.8 µM (inactive)"
>>> result("CCOC(=O)C(Cc1ccccc1)NC(=O)c1nc[nH]c1/N=N/N(C)C (configuration not stated)")
"> 100 µM (inactive)"
>>> result("CC(C)(C)OC(=O)N/N=C(/N)c1ccccc1")
"> 100 µM (inactive)"
>>> result("Cc1ccc(S(=O)(=O)N/N=C/c2oc(-c3cccc([N+](=O)[O-])c3)c(-c3cccc([N+](=O)[O-])c3)c2[N+](=O)[O-])cc1")
"> 100 µM (inactive)"
>>> result("CCC1=CC(OCc2ccccc2)C(CCN(Cc2ccccc2)C(=O)OCc2ccccc2)C1 (configuration not stated)")
"13.5 µM (inactive)"
>>> result("O=C1c2ccccc2C(=O)C1C(c1ccc(F)cc1)C1C(=O)c2ccccc2C1=O")
"> 100 µM (inactive)"

Query (compound): O=C(Cn1nnc(-c2ccccc2)n1)N/N=C/c1cn(Cc2ccc(Cl)cc2Cl)c2ccccc12 ; field requested: GI50
> 100 µM (inactive)
